Molecular target: Cholesteryl ester transfer protein (Homo sapiens)
Sequence (P11597 whole entry): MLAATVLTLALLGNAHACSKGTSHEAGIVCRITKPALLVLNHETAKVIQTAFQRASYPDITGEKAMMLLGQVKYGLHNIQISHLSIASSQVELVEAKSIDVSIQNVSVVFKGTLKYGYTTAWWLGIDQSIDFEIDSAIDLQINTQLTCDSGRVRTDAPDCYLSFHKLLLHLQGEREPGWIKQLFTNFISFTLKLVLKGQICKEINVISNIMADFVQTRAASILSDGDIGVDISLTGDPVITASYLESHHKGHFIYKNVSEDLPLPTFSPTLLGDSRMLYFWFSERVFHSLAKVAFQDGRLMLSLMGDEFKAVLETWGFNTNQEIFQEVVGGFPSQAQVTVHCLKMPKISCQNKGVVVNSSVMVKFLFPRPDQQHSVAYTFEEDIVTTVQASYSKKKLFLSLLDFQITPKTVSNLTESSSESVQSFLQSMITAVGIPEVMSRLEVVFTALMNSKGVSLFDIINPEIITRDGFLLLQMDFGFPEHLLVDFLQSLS
Assay: In vitro inhibition of CETP activity was assessed by measuring the rate of [3H]- cholesteryl ester transfer from HDL to apoprotein B-containing lipoproteins in human plasma
metricName: IC50 (µM)

Recorded results for 4 compounds are shown here.
CC(C)CCC1(C(=O)Nc2cc(C(F)(F)F)ccc2SC(=O)C(C)(C)C)CCCCC1 ... 13
CC(C)(C)C(=O)Sc1cc(F)ccc1NC(=O)C1(C)CCCCC1 ... 78
CC(C)CCC1(C(=O)Nc2cc(Cl)ccc2SC(=O)C(C)(C)C)CCCCC1 ... 13
CC(C)(C)C(=O)Sc1ccc(C#N)cc1NC(=O)C1(C)CCCCC1 ... 102

a: CC(C)CCC1(C(=O)Nc2ccc(Cl)cc2SC(=O)C(C)(C)C)CCCCC1
b: CC(C)(C)C(=O)Sc1ccc(F)cc1NC(=O)C1(C)CCCCC1
Which value of IC50 is numerically greater: that of a or that of b ? Kindly state the label of the option you pick.
b
